pKd: −log10 of the molar value.
# collection of pKd values tested on Moubatin (Ornithodoros moubata)
quantityMeasured: pKd

CCCCC[C@H](O)/C=C/[C@@H]1[C@@H](C/C=C\CCCC(=O)O)[C@H]2CO[C@@H]1C2 = 7.70
CCCCC[C@H](O)/C=C/C1CC2CC(C2)C1C/C=C\CCCC(=O)O (stereo partly shown) = 7.62
CCCCC/C=C\C/C=C\C/C=C\C/C=C\CCCC(=O)O = 7.47
CCCCC/C=C\C[C@@H](O)/C=C/C=C/C=C\[C@@H](O)CCCC(=O)O = 7.80

---

biological target: TSGP3_G85R (Ornithodoros kalahariensis, UniProt Q8I9U0, G104R); assay: Isothermal titration calorimetry
quantityMeasured: Kd (µM)

CCCCC/C=C\C[C@@H](O)/C=C/C=C/C=C\[C@@H](O)CCCC(=O)O = 0.228
